// reported melting point for each item listed

According to the records, this molecule COc1cc(C=CC(=O)c2ccc(OC)c(OC)c2OC)cc(OC)c1 displays melting point of 112 °C

Looking up Cc1cccc(Oc2cccc(C#CC(C)N(O)C(N)=O)c2)n1 (stereo not drawn) , I found its melting point recorded as 133 to 135 °C

// switching to the query molecule
The molecule listed as CC(C)C[C@H](NC(=O)COc1ccccc1)C(=O)N[C@@H](C(C)C)[C@H](O)c1c(-c2ccc(F)cc2)c1=O shows melting point equal to 75 to 79 °C

----------
measured attribute: melting point

// solved cases for melting point follow
// O=C1CC(NC(=O)c2ccc3nc[nH]c3c2)CCCN1 (stereo not given) : melting point value = 297 to 299 °C

Notebook: CCOC(=O)c1cc(-n2c(=O)c(C)c(C)n(C)c2=O)ccc1Cl , melting point read as 159 to 161 °C

Noted for CC(=CC(=O)NCCCCCC(=O)NO)c1ccccc1 : its melting point reads 131 to 133 °C

Form field melting point, entry O=C(O)c1ccc(Cl)c2c1[nH]c1ccccc12 : 280 °C

Okay, next one:
Data point: CC(C)n1cc(-c2ccc3nnn(Cc4ccc5ncccc5c4)c3n2)cn1 ; melting point = 126 to 128 °C
